Below, each entry is listed alongside its reported pKd.
Target: T1, cynomolgus TREM2-Fc (cynomolgus monkey, UniProt A0A2K5UY34 49-204)
T1 construct: also called cyno TREM2; not shown: Fc part
T1 sequence: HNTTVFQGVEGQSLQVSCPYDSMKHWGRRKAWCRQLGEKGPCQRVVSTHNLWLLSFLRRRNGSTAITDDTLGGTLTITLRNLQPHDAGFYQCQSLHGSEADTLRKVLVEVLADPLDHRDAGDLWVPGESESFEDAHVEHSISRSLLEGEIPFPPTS
Test: SPR (Biacore T200), 37 C; TREM2-Fc on protein A chip, soluble Fab
Procedure: Affinity of h3.10C2.v1 (FIGS. 9A-B) for human and cynomolgus TREM2 was determined by SPR in a Biacore™ T200 apparatus in two formats, both at 37° C. In one format TREM2-Fc was immobilized on protein A chips and soluble anti-TREM2 Fab fragments used as ligands. In the second format, anti-TREM2 IgG was immobilized on anti-CH1 Biacore™ chips and used soluble monomeric TREM2 as ligand.
pKd: −log10 of the molar value.

{"binder": "3.10C2 Fab (Fab, V domains shown, also called 3.10C2 (3.10C2); Rat3.10C2) VH: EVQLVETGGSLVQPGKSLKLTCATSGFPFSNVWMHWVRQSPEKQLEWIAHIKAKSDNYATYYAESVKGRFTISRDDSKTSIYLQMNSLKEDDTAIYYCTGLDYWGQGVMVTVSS VL: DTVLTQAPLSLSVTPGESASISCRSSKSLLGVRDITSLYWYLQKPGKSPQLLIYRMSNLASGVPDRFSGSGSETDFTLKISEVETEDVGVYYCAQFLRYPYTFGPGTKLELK", "pKd": 9.66}
{"binder": "h3.10C2.v1 Fab (Fab, V domains shown, also called 3.10C2-H1/3.27H7-L6) VH: EVQLVESGGGLVQPGGSLKLSCATSGFPFSNVWMHWVRQASGKGLEWIAHIKAKSDNYATYYAESVKGRFTISRDDSKTTIYLQMNSLKTEDTAVYYCTGLDYWGQGTTVTVSS VL: DVVMTQSPLSLPVTPGEPASISCRSSRSLLTSKGITSLYWYLQKPGQSPQLLIYRMSNLASGVPDRFSGSGSGTDFTLKISRVEAEDVGVYYCAQFLVYPYTFGQGTKVEIK", "pKd": 9.37}
{"binder": "Para.09 Fab with the 3.27H7 light chain (Fab, V domains shown, Fab fragment; also called Para.09 (3.27H7); Para.09-L27H7) VH: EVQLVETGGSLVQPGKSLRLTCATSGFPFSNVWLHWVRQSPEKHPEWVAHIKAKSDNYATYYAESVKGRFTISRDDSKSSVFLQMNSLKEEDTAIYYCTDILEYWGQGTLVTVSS VL: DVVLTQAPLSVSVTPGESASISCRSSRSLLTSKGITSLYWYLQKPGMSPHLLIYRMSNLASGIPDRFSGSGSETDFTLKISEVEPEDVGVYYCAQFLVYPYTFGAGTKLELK", "pKd": 10.74}
